Source of measurements: paper PMC5700166

Target: GST-Nv-NF-kB (Cys allele) (Nematostella vectensis, UniProt E5G601 2-411)
Sequence: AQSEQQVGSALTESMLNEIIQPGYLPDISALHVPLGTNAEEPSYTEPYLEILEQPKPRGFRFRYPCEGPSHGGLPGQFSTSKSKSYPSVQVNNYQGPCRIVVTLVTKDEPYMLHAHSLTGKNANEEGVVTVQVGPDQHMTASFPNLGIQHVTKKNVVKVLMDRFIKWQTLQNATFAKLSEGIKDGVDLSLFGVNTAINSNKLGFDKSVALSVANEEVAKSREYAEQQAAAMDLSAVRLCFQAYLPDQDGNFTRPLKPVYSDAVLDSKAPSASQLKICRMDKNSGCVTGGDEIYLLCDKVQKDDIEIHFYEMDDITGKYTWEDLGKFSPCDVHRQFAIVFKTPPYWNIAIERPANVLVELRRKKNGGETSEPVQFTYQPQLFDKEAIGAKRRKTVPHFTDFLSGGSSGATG
Assay: protein-binding microarray (PBM); PBM: ~300 nM protein, 6 mM HEPES pH 7.8, 80 mM KCl, 0.5 mM EDTA, 0.5 mM EGTA, 6% glycerol, 35 ng/ul poly-dIdC, 1% milk, 1 h, room temperature; Ap Aiptasia and Nv Nematostella (sea anemones) / Co Capsaspora / Aq Amphimedon (sponge) / Dm Drosophila / Hu human; RHD is the Rel homology domain; high values mean tight binding
Details: dsDNA, one strand shown
MEASURED_METRIC: binding signal (z-score)
Give bare numbers, in z-score.

CCGATTAACATCAGTTCCCCCCATGATGTTAATCGGGTCTTGATTCGCTTGACGCTGCTG :: 4.32
CCGATTAACATCAGAAGATCCCCTGATGTTAATCGGGTCTTGATTCGCTTGACGCTGCTG :: 6.92
CCGATTAACATCAGGGATTTCTATGATGTTAATCGGGTCTTGATTCGCTTGACGCTGCTG :: 4.04
CCGATTAACATCAAGTAAATCCCTGATGTTAATCGGGTCTTGATTCGCTTGACGCTGCTG :: 2.71

# batch: return binding signal for each of the 5 sequences below
1. CCGATTAACATCAGGAAACACCCTGATGTTAATCGGGTCTTGATTCGCTTGACGCTGCTG
2. CCGATTAACATCAGGGAAAATGATGATGTTAATCGGGTCTTGATTCGCTTGACGCTGCTG
3. CCGATTAACATCAAATTCCCATGTGATGTTAATCGGGTCTTGATTCGCTTGACGCTGCTG
4. CCGATTAACATCAAAATTTCACCTGATGTTAATCGGGTCTTGATTCGCTTGACGCTGCTG
5. CCGATTAACATCAAAAAAAACCCTGATGTTAATCGGGTCTTGATTCGCTTGACGCTGCTG

1: 2.79; 2: 4.26; 3: 4.08; 4: 2.14; 5: 6.25
